System: SK-OV-3 ovarian
measurement_description: NCI-60 one-dose screen, 48 h (100 = growth as untreated, 0 = no growth, -100 = all killed)
protocol_conditions: 10 µM unless noted
The panel holds about 83,000 compounds, 20% with a hit somewhere; the sample as a whole holds those more often.

{"columns": ["molecule", "growth [%]"],
 "data": [
  ["CNC(=O)c1c(NC(=O)c2ccccc2C(F)(F)F)sc2c1CCC(=O)C2", 95.7],
  ["CCc1cccc2c3c(sc12)C(c1ccc(Cl)cc1)C(C#N)=C(/N=C/c1ccc(Cl)cc1)O3 (stereo not given)", 55.4],
  ["Cc1ccc(N2C(=O)/C(=C/C=C/c3ccco3)SC2=S)cc1", 107],
  ["O=C(Nc1nonc1-c1ccccc1)c1ccc(C(F)(F)F)cc1", 112],
  ["COc1ccc(COc2ccc(/C=C3\\C(=O)Nc4ccccc43)cc2OC)cc1", 119],
  ["CC1(C)[C@@H](O)CC[C@]2(C)[C@H]3CC[C@@H]4[C@H]5[C@H](C(=O)/C=C\\c6ccc([N+](=O)[O-])cc6)CC[C@]5(O)CC[C@@]4(C)[C@]3(C)CC[C@@H]12", 107],
  ["CCOC(=O)c1c(Nc2ccccc2)nn2c(-c3ccccc3)ccnc12", 102],
  ["CCOC(=O)c1c(Nc2ccccc2)nn2c(-c3cccs3)ccnc12", 83.2],
  ["CCn1c(SCC(=O)Nc2cccc(C(=O)/C=C/c3ccccc3Cl)c2)nc2ccccc2c1=O", 106],
  ["Cc1cc(C)c2sc(=O)n(Cc3nnc(SCCC(=O)O)o3)c2n1", 105],
  ["COc1ccc(NC(=O)CSc2nnc(-c3ccc4nc(-c5ccccc5)[nH]c4c3)o2)cc1", 108],
  ["COc1ccc2c(c1)c(CC(=O)[Se]CC(=O)O)c(C)n2C(=O)c1ccc(Cl)cc1", 116],
  ["COc1ccc(-n2c(SCc3nnc(NC(=O)c4ccc(Br)cc4)s3)nc3cc(OC)c(OC)cc3c2=O)cc1", 108],
  ["O=c1[nH]c(Sc2sc3ccc(Cl)cc3c2CBr)nc(=S)[nH]1", 18.4],
  ["COc1ccccc1-n1cc(C#N)c(N)c1C(=O)c1ccc(Br)cc1", 88.7],
  ["COc1ccc(/C=C(\\C#N)C(=O)N2c3ccccc3Sc3ccc(SC)cc32)cc1F", 100],
  ["CNC(=O)c1cc(Oc2ccc3nc(NC(=O)c4cccc(OC(F)(F)F)c4)sc3c2)ccn1", 88.4],
  ["COc1ccccc1NCc1cccn1Cc1ccc(F)cc1", 116],
  ["O=C(CSc1nc2ccccc2c(=O)n1-c1ccc(Cl)cc1)N/N=C/c1ccc(N2CCCCC2)cc1", 30.1],
  ["O=C1/C(=C/C=C/c2ccco2)SC(=S)N1C1CCCCC1", 104]
]}
